Tested on: CSNK1G1;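 further: KINOMEscan kinase panel screen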
condition.context: concentration: 1 μM, replicates: in singlicate; n = 1
I'd appreciate it if you could supply %Inh values for the items below.
Please respond with the number in % and leave the unit unwritten.

So for Nc1nc(-c2ccc3c(N)n[nH]c3c2)cc(N2CCCCC2)n1 [GSK2228768] , the logged %Inh turned out to be 0

%Inh recorded for this compound, Cl.Fc1ccccc1COc1ccc(Nc2ncnc3ccc(-c4nnc(C(F)(F)F)o4)cc23)cc1Cl [GW424170] , is 0

The compound listed as O=c1cc(N2CCOCC2)nc2n(Cc3cccc(Cl)c3)ccn12 [GSK2296823] has a reported %Inh of 10

Looking up Cl.Cl.c1ccc(-c2cc3ccncc3cc2OC2CCNCC2)cc1 [GSK1122999] , I see its %Inh listed as 14

So, `Cn1ccc2ncnc(Oc3ccc(NC(=O)Nc4cccnc4)c(Cl)c3)c21` ? Its %Inh was 0

Data credit: paper PMC5540273
